- Target System: UniProt Q92731
- Sequence (Q92731 whole entry): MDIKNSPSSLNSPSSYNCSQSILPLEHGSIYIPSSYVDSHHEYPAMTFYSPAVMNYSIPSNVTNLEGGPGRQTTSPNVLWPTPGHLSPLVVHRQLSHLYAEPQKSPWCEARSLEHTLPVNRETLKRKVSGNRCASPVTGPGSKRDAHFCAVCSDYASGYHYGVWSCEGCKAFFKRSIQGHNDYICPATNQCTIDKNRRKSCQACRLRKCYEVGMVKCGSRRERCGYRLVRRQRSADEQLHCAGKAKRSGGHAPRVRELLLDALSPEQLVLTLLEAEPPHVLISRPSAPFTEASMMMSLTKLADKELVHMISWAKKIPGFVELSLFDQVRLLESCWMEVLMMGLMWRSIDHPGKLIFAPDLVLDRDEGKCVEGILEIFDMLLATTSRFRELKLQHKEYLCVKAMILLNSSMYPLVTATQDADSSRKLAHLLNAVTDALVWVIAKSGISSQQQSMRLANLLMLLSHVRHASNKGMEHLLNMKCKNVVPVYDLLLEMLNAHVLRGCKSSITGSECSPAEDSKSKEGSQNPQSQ
- Condition Label: sf9; also: in other assays of this panel Not Active means under 50% inhibition at 10 µM
Experimental Readout: IC50

Molecule	Observed
C[C@H]1O[C@H](O[C@H]2[C@H](O)[C@@H](O)[C@@H](O[C@H]3[C@H](O)[C@@H](O)C(O)O[C@@H]3CO)O[C@@H]2CO)[C@H](O)[C@@H](O)[C@@H]1N[C@H]1C=C(CO)[C@@H](O)[C@H](O)[C@H]1O (stereo partly drawn)	Not Active
NC(=O)N1c2ccccc2CC(=O)c2ccccc21 [OXCARBAZEPINE]	Not Active
O=C(O)CCNC(=O)c1ccc(/N=N/c2ccc(O)c(C(=O)O)c2)cc1 [BALSALAZIDE]	Not Active
